Target: T1, BCMA (Homo sapiens (Human), UniProt Q02223 1-54, limits assumed)
T1 sequence: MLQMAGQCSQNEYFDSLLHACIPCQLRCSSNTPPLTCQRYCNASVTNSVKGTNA
Test: ELISA, format not described
Design: unit not given here
I'd be grateful if you could share measured ELISA_avg for these entries.

A selection of reference data follows.
D-domain SEQ ID NO: 272 (designed binder) MGSWVQFKYHLAVIKFYLEALGGSEAELAHFETWIAEFEVALQGYKGKGNPEVEALRKEAAAIRDELQAYRHN ... 12.7
D-domain SEQ ID NO: 217 (designed binder) MGSWTEFYHRLYAIRERLSALGGSEAELAAFEKEIAAFESELQAYKGKGNPEVEYLRFGAAHIRHLLQAYRHN ... 9.63

With those in mind, consider the next binder.
q: Complete the entry with ELISA_avg for D-domain SEQ ID NO: 64 (designed binder) MGSWTEFMERLDAISYRLWALGGSEAELAAFEKEIAAFESELQAYKGKGNPEVEVLRDYAAIIRNSLQAYRHN
a: 9.87
